- Test system: adult Musca domestica, strain: Reichswald (OP, SP, carbamate resistant)
- protocol: Test with flies (Musca domestica) (Example H)
- Type: in vivo
- conditions: Concentration 20 μg fly; reading time not given
recorded.metric: % Activity/Kill

// query Name the recorded % Activity/Kill of the compound listed here: O=C(Nc1ccc(SC(F)(F)F)cc1)N1CCC(n2cc(Cl)cn2)C(c2cccc(C(F)(F)F)c2)=N1 (stereo not drawn)
// result 0%

Below is a list of compounds. For each, state its recorded % Activity/Kill.
1. O=C(Nc1ccc(OC(F)(F)F)cc1)N1CCC(n2cc(Cl)cn2)C(c2cccc(C(F)(F)F)c2)=N1 (stereo not drawn)
2. O=C(Nc1ccc(Cl)cc1)N1CCC(n2cc(Cl)cn2)C(c2cccc(C(F)(F)F)c2)=N1 (stereo not drawn)
3. O=C(Nc1ccc(C(F)(F)F)cc1)N1CCC(n2cc(Cl)cn2)C(c2cccc(Cl)c2)=N1 (stereo not drawn)

// result
1. 50%
2. 30%
3. 85%

Below is a list of compounds. For each, state its recorded % Activity/Kill.
1. O=C(Nc1ccc(OC(F)(F)F)cc1)N1CCC(n2cc(Cl)cn2)C(c2cccc(F)c2)=N1 (stereo not drawn)
2. O=C(Nc1ccc(OC(F)(F)F)cc1)N1CCC(n2cc(Cl)cn2)C(c2cccc(Cl)c2)=N1 (stereo not drawn)

// result
1: 50%; 2: 50%
